STUDY SYSTEM: T1, rat calcitonin receptor (rat, UniProt P32214 25-516)
T1 construct: whole, on cells; Membranes prepared from transiently transfected BHK tk'ts 13 cells (Assay VIII); also called rCTR; rCT
T1 sequence (looked up): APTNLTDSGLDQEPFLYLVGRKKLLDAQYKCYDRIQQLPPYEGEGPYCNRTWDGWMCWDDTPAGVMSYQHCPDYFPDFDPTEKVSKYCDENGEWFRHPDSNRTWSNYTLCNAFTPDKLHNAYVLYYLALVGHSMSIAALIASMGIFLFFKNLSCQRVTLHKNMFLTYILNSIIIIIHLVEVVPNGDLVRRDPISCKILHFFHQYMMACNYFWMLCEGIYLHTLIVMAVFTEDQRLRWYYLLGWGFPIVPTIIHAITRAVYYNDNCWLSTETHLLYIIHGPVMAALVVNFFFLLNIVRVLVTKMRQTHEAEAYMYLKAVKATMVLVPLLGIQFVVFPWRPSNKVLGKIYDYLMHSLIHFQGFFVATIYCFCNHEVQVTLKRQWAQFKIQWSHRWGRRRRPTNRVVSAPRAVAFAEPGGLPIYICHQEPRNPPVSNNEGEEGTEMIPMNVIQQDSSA
ASSAY DETAILS: SPA competition vs 125I-calcitonin, membranes of BHK cells with rat calcitonin receptor (Assay VIII)
Numbered stars: 1 amine (or outer) side, 2 acyl side, 3 side chain; on linkers, the order of the positions; unused ones are H or OH. Bridge positions count the residues as written; N and C are the ends. Side chains are listed from the residue outwards. Ends that are not written are not given here. * marks the point of attachment. C20 diacid = O=C(O)CCCCCCCCCCCCCCCCCCC(=O)*; γGlu = O=C(O)[C@H](CCC(=O)[*:2])N[*:1]; AEEA = NCCOCCOCC(=O)O
PROPERTY NAME: pIC50
Friendly reminder that pIC50 comes from taking -log10 of the concentration in mol/L.

# pIC50 lookup, item K([AEEA-γGlu-C20 diacid])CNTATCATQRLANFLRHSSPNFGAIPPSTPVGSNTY-NH2 (disulfide 2-7, Analogue of human amylin; also called compound 53)
7.96
